Provenance of the data: patent US20190322676A1

This section presents compounds with their documented IC50 values.
- system-under-test: human CGT (ceramide galactosyltransferase), CHO/CGT lysate (Homo sapiens)
- Construct: Full-length human CGT cDNA was cloned into the BamH1/Xho1 site of pcDNA3.1 (+); expressed in transfected cells; host or cells: Chinese hamster ovary (CHO) cells; lysate prepared with M-PER
- Sequence (Q16880 21-541): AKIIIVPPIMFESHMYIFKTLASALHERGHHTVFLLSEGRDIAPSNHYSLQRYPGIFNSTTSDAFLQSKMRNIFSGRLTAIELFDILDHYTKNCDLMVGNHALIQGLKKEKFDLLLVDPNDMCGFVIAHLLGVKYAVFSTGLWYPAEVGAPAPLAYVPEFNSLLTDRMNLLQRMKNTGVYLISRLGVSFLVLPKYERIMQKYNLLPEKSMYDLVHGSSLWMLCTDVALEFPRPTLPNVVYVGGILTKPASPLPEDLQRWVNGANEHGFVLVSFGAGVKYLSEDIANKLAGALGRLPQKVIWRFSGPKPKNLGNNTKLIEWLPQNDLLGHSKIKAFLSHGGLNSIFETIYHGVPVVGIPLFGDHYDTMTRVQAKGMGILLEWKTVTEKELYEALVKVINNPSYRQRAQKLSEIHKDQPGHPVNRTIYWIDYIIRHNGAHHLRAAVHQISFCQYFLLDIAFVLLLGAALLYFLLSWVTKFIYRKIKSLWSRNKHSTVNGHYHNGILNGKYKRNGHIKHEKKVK
- assay-comment: CGT enzyme assay, LC-MS/MS readout (Table 1 ranges without asterisk)
- Assay type: biochemical
- measurement-setup: LC-MS/MS method (range without asterisk)
Where a name gives a salt, the structure may show the parent alone.

compound: NC1CC2CCC(C1)N2C(=O)[C@@H](NS(=O)(=O)c1ccc(OCc2ccc(Cl)cc2)cc1)C(F)(F)c1ccc(Br)cc1 (stereo partly drawn) [Compound 15-1, trifluoroacetate]
IC50: 1 to 10 µM
//
compound: CCCCCCOc1ccc(S(=O)(=O)N[C@@H](C(=O)N2C3CCC2CC(N)C3)C(F)(F)c2ccc(Br)cc2)cc1 (stereo partly drawn)
IC50: 30 to 100 µM
//
compound: NC1CC2CCC(C1)N2C(=O)[C@H](NS(=O)(=O)c1ccc2cc(OC3CCCC3)ccc2c1)C(F)(F)c1ccc(Br)cc1 (stereo partly drawn) [Compound 5-2, trifluoroacetate]
IC50: 1 to 10 µM
//
compound: CC(C)Oc1ccc2cc(S(=O)(=O)N[C@@H](C(=O)N3CCC(N)CC3)C(F)(F)c3ccc(Br)cc3)ccc2c1Br
IC50: 10 to 30 µM
//
compound: CC[C@@H](C)Oc1ccc2cc(S(=O)(=O)N[C@@H](C(=O)N3C4CCC3CC(N)C4)C(F)(F)c3ccc(Br)cc3)ccc2c1 (stereo partly drawn)
IC50: 10 to 30 µM
//
compound: CC(C)Oc1ccc2cc(S(=O)(=O)N[C@H](C(=O)N3CCC(N)CC3)C(F)(F)c3ccc(Br)cc3)ccc2c1 [Compound 27-1, trifluoroacetate]
IC50: 1 to 10 µM
//
compound: CCCCOc1ccc2cc(S(=O)(=O)N[C@@H](C(=O)N3C4CCC3CC(N)C4)C(F)(F)c3ccc(Br)cc3)ccc2c1 (stereo partly drawn) [Compound 6-2, trifluoroacetate]
IC50: 30 to 100 µM
//
compound: NC1CC2CCC(C1)N2C(=O)[C@@H](NS(=O)(=O)c1ccc2cc(OCc3ccccc3)ccc2c1)C(F)(F)c1ccc(Br)cc1 (stereo partly drawn)
IC50: 1 to 10 µM
//
compound: NC1CC2CCC(C1)N2C(=O)[C@H](NS(=O)(=O)c1ccc(Oc2ccc(F)cc2)cc1)C(F)(F)c1ccc(Br)cc1 (stereo partly drawn)
IC50: 30 to 100 µM
//
compound: NC1CC2CCC(C1)N2C(=O)[C@@H](NS(=O)(=O)c1ccc(OCC2CCCC2)cc1)C(F)(F)c1ccc(Br)cc1 (stereo partly drawn) [Compound 20-1, trifluoroacetate]
IC50: 1 to 10 µM
//
compound: CCCCOc1ccc2cc(S(=O)(=O)N[C@H](C(=O)N3C4CCC3CC(N)C4)C(F)(F)c3ccc(Br)cc3)ccc2c1 (stereo partly drawn) [Compound 6-1, trifluoroacetate]
IC50: 1 to 10 µM
//
compound: CCCCOc1ccc(S(=O)(=O)N[C@@H](C(=O)N2C3CCC2CC(N)C3)C(F)(F)c2ccc(Br)cc2)cc1 (stereo partly drawn)
IC50: 30 to 100 µM
